molecular target: Aldo-keto reductase family 1 member A1 (Rattus norvegicus, UniProt P51635)
Sequence (P51635 whole entry, looked up): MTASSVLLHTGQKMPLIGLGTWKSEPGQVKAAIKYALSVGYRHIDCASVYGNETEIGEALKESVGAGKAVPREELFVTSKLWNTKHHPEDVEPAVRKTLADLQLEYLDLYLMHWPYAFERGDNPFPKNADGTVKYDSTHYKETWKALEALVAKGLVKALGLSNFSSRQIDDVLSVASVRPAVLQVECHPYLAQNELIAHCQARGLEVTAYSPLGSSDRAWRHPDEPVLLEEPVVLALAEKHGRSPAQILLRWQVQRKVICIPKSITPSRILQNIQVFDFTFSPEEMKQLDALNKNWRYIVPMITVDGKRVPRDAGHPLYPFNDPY
pIC50: −log10 of the molar value.
measured-quantity: pIC50

Q: For COc1ccc(/C=N/N2C(=O)/C(=C/c3ccc(O)cc3)SC2=S)cc1 , what is its reported pIC50?
Ans: < 4.60

====

Please respond with reported Ratio IC50 for every item in the list.
organism: Rattus norvegicus; assay: Selectivity index, ratio of IC50 for rat kidney ALR1 to IC50 for rat eye lens ALR2
Give the figure only, with no unit attached.

Q: For O=C1/C(=C/c2ccc(O)cc2)SC(=S)N1/N=C/c1ccccc1Cl , what is its reported Ratio IC50?
Ans: 12

Q: Entry O=C1/C(=C/c2ccc(O)cc2)SC(=S)N1/N=C/c1ccccc1 please
Ans: 24

Q: Entry O=C1/C(=C/c2ccc(O)cc2)SC(=S)N1/N=C/c1ccc(O)cc1 please
Ans: 5

Q: Entry Cc1ccccc1/C=N/N1C(=O)/C(=C/c2ccc(O)cc2)SC1=S please
Ans: 12

Q: Entry O=C1/C(=C/c2ccc(O)cc2)SC(=S)N1/N=C/c1ccc(F)cc1 please
Ans: 8

====

molecular target: Aldo-keto reductase family 1 member B1 (Homo sapiens)
measured-quantity: pIC50
Would you please state pIC50, meaning minus log10 of the concentration in mol/L, as a bare number?

Q: For O=C(CN1C(=O)S/C(=C\c2ccc(O)cc2)C1=O)Nc1ccccc1O , what is its reported pIC50?
Ans: 6.02

The values you see were collected from ChEMBL document CHEMBL5352451.
